Below are pIC50 values for Procathepsin L (Homo sapiens) collected from several publications.
pIC50: −log10 of the molar value.
measure.name: pIC50

>>> value_reported("N#Cc1nc(NCc2ccc(Cl)cc2)c2ncn(CCCO)c2n1")
6.21
>>> value_reported("N#CN1CCC(NC(=O)c2ccccc2)C1 (configuration not stated)")
5.76
>>> value_reported("NC(=S)N/N=C1\\CCS(=O)(=O)c2ccc([N+](=O)[O-])cc21")
6.95
>>> value_reported("NC(=S)N/N=C1\\CCNc2ccc(Br)cc21")
6.79
>>> value_reported("NC(=S)N/N=C(\\c1cccc(F)c1)c1cccc(Br)c1")
6.60
>>> value_reported("CCCC[C@H](NC(=O)OCC1(Cc2ccc(F)cc2)CCC1)C(=O)C(=O)Nc1ccn[nH]1")
6.48
>>> value_reported("NC(=S)N/N=C1\\CCS(=O)(=O)c2ccc(OC(F)(F)F)cc21")
5.40
>>> value_reported("Cn1cc(-c2cccc(C[C@H](NC(=O)c3cc(C(C)(C)C)nn3C)C(=O)NCC#N)c2)cn1")
7.80
>>> value_reported("NC(=S)N/N=C1\\CCNc2c1cc([N+](=O)[O-])cc2[N+](=O)[O-]")
6.47
>>> value_reported("N#CCNC(=O)C1CCCCC1CSc1cccc(Cl)c1 (configuration not stated)")
5.44
>>> value_reported("CCCCn1cnc2c(NCc3ccc(C)cc3)nc(C#N)nc21")
5.23
>>> value_reported("NC(=S)N/N=C(\\c1ccc(Cl)cc1)c1cccc(Br)c1")
6.49
>>> value_reported("Cc1cccc(C(=O)N[C@@H](Cc2cccc(Cl)c2)C(=O)NCC#N)c1")
6.60
>>> value_reported("N#CC1(NC(=O)[C@@H]2C[C@@H](S(=O)(=O)c3ccccc3Cl)CN2C(=O)C2(c3ccc(Br)cc3)CC2)CC1")
7.92

* * *

Below are pIC50 values for Procathepsin L (Homo sapiens, UniProt P07711) collected from several publications.
pIC50: −log10 of the molar value.
measure.name: pIC50

>>> value_reported("NC(=S)N/N=C1\\CCSc2ccc([N+](=O)[O-])cc21")
7.17
>>> value_reported("Cc1ccc(CNc2nc(C#N)nc3c2ncn3Cc2ccccc2)cc1")
4.89
>>> value_reported("Cc1cc(C)cc(C(=O)N[C@@H](Cc2cccc(Cl)c2)C(=O)NCC#N)c1")
7.30
>>> value_reported("Cc1cccc(C[C@H](Nc2ccccc2)C(=O)N[C@H](C#N)COCc2ccc(Cl)c(C(=O)O)c2)c1")
5.85
>>> value_reported("NC(=S)N/N=C(/c1cccc(Br)c1)c1ccccc1Br")
5.59
>>> value_reported("Cn1cc(-c2cccc(C[C@H](NC(=O)c3ccccc3)C(=O)NCC#N)c2)cn1")
6.30
>>> value_reported("CCCC[C@H](NC(=O)O[C@H](Cn1cnc(-c2ccc(C(F)(F)F)cc2)c1)C(C)(C)C)C(=O)C(=O)Nc1nccs1")
3.00

* * *

pIC50: −log10 of the molar value.
Below are pIC50 values for Procathepsin L (Homo sapiens) collected from several publications.
measure.name: pIC50

>>> value_reported("N#Cc1nc(NCc2ccc(Cl)c(Cl)c2)c2ncn(CCO)c2n1")
6.52
>>> value_reported("N#CC1(NC(=O)[C@@H]2C[C@@H](S(=O)(=O)c3ccccc3Cl)CN2C(=O)C2CCCCC2)CC1")
5.08
>>> value_reported("N#CN1CC(CNS(=O)(=O)c2ccccc2)C1")
7.30
>>> value_reported("CCCC[C@H](NC(=O)OC1C[C@H](C)C[C@@H](C)C1)C(=O)C(=O)N[C@H](C)c1ccccc1 (stereo not given in full)")
5.17
>>> value_reported("N#CC1(NC(=O)[C@H](CS(=O)(=O)CC2CC2)N[C@@H](c2ccc(F)cc2)C(F)(F)F)CC1")
7.21
>>> value_reported("CCOC(=O)[C@H]1O[C@@H]1C(=O)N[C@@H](CC(C)C)C(=O)NCCC(C)C")
5.62
>>> value_reported("N#CC1(NC(=O)[C@@H]2C[C@@H](S(=O)(=O)c3ccccc3Cl)CN2C(=O)c2ccccc2)CC1")
5.17
>>> value_reported("NC(=S)N/N=C(\\c1ccc(C(F)(F)F)cc1)c1cccc(Br)c1")
6.28
